Reported pEC50, in vitro inhibition of cAMP values for a set of molecules
target: GPR6 receptor expressed in CHO-K1 cells (Homo sapiens, UniProt P46095); construct: expressed in transfected cells; assay: In vitro inhibition of cAMP (EC50), cell-based HTRF cAMP assay; settings: inhibition of constitutive cAMP activity of GPR6 in CHO-K1 cells
Sequence (P46095 whole entry): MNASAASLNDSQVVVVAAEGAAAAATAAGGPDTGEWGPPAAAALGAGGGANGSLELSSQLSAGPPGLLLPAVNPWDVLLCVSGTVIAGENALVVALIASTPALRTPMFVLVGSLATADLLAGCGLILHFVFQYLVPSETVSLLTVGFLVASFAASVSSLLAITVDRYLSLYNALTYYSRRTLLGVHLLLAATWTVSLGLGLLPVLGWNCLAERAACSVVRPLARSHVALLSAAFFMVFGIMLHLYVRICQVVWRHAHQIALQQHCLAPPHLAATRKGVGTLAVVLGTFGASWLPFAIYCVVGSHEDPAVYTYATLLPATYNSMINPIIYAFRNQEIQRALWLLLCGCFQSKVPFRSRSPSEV
# respond with the number and nothing more

Previously resolved entries follow.
COc1nn(C)cc1C(=O)Nc1cc(C#N)ccc1N1CCC(S(=O)(=O)c2cccc(F)c2)CC1 [Example 97]; 6.4
COc1ccc(CN2CCN(c3ccc(C#N)cc3NC(=O)c3cccnc3OC)CC2)nc1 [Example 250]; 6.0

query: Record request: pEC50, in vitro inhibition of cAMP value, item COc1ncccc1C(=O)Nc1cnc(C)cc1N1CCC(Oc2ccc(C#N)cc2F)CC1 [Example 40]
result: 6.2

query: Then N#Cc1ccc(N2CCC(Oc3ccc(F)cc3F)CC2)c(NC(=O)c2cccnn2)c1 [Example 126] ?
result: 6.3

query: Moving on to the next molecule: Cn1ccnc1C(=O)Nc1cc(C#N)ccc1N1CCC(Oc2ccc(F)cc2F)CC1 [Example 50]
result: 6.2

query: Follow-up entry: COc1c(C)cc(Cl)cc1C(=O)Nc1cc(C#N)ccc1N1CCC(Oc2ccc(F)cc2F)CC1 [Example 195]
result: 5.9

query: Moving on to the next molecule: COc1nccc(C(=O)Nc2cc(C#N)ccc2N2CCC(Oc3ccc(F)cc3F)CC2)n1 [Example 144]
result: 6.9

query: And for COc1ncccc1C(=O)Nc1cc(C#N)ccc1N1CCN(Cc2ccc(F)c(F)c2)CC1 [Example 246] ?
result: 7.1

query: Same question, COc1nn(C)cc1C(=O)Nc1cc(C#N)cnc1N1CCN(Cc2ccc(F)c(C#N)c2)CC1 [Example 154] this time
result: 6.5

query: Also, COc1ncccc1C(=O)Nc1cc(C#N)ccc1N1CCN(Cc2ccsc2)CC1 [Example 73] please.
result: 6.5

query: Try COc1cc(N(C)C)ccc1C(=O)Nc1cc(C#N)ccc1N1CCC(Oc2ccc(F)cc2F)CC1 [Example 188] next.
result: 6.4

query: Also, COc1cccc(S(=O)(=O)C2CCN(c3ccc(C#N)cc3NC(=O)c3cn(C)nc3OC)CC2)c1 [Example 98] please.
result: 6.4

query: Same lookup for COc1ccc(OC2CCN(c3ccc(S(C)(=O)=O)cc3NC(=O)c3cn(CCF)nc3OC)CC2)c(F)c1 [Example 1] , please.
result: 7.2

query: Next entry: CC(C)n1cc(Br)cc(C(=O)Nc2cc(C#N)ccc2N2CCC(Oc3ccc(F)cc3F)CC2)c1=O [Example 182]
result: 6.3

query: Similarly, COc1nn(C)cc1C(=O)Nc1cc(C#N)cnc1N1CCC(Oc2ccc(F)cc2F)CC1 [Example 60] ?
result: 7.3

query: Okay, and COc1cccc(OC)c1C(=O)Nc1cc(C#N)ccc1N1CCC(Oc2ccc(F)cc2F)CC1 [Example 238] ?
result: 5.0

query: Repeat for the following molecule: Cn1cccc(C(=O)Nc2cc(C#N)ccc2N2CCC(Oc3cc(F)cnc3F)CC2)c1=O [Example 292]
result: 6.6

query: Same read-out for COc1nc(C)ncc1C(=O)Nc1cc(C#N)ccc1N1CCC(Oc2ccc(F)cc2F)CC1 [Example 278] ?
result: 7.4

query: Param item: Cn1cccc(C(=O)Nc2cc(C#N)ccc2N2CCC(C(=O)c3cc(Cl)ccc3F)CC2)c1=O [Example 83]
result: 6.9

query: Consider next the molecule COCc1cc(N2CCC(Oc3ccc(F)cc3F)CC2)c(NC(=O)c2cccnc2OC)cn1 [Example 268] in the same way.
result: 6.9

query: What do you get for Cc1cccc2ncc(C(=O)Nc3cc(C#N)ccc3N3CCC(Oc4ccc(F)cc4F)CC3)c(=O)n12 [Example 187] ?
result: 6.6

query: Field entry: N#Cc1ccc(N2CCC(Oc3ccc(F)cc3F)CC2)c(NC(=O)c2cc3cccn3cn2)c1 [Example 48]
result: 6.8

query: Record: Cc1cncc(C(=O)Nc2cc(C#N)ccc2N2CCC(Oc3ccc(F)cc3F)CC2)n1 [Example 130]
result: 7.1

query: Lookup COc1ccc(C(=O)N2CCN(c3ccc(C#N)cc3NC(=O)c3cccnc3OC)CC2)c(F)c1 [Example 284]
result: 6.6

query: Try COc1nccc(Cl)c1C(=O)Nc1cc(C#N)ccc1N1CCC(Oc2ccc(F)cc2F)CC1 [Example 223] next.
result: 5.6

query: Now try Cn1cccc(C(=O)Nc2cc(C#N)ccc2N2CCC(Oc3ccc(F)cc3)CC2)c1=O [Example 4] .
result: 6.7

query: What about Cn1cccc(C(=O)Nc2cc(C#N)ccc2N2CCC([C@@H](F)c3ccc(F)cc3F)CC2)c1=O [Example 85] ?
result: 7.2

query: Check COc1ccc(Br)cc1C(=O)Nc1cc(C#N)ccc1N1CCC(Oc2ccc(F)cc2F)CC1 [Example 225] too.
result: 6.4

query: What would you report for COc1nn(C)cc1C(=O)Nc1cc(C#N)cnc1N1CCN(Cc2cc(F)cc(F)c2)CC1 [Example 169] ?
result: 6.4

query: Then this molecule: N#Cc1ccc(N2CCC(Oc3ccc(F)cc3F)CC2)c(NC(=O)c2cnn3c2OCCC3)c1 [Example 53]
result: 6.3

Values compiled from patent US11426397B2.
